# runDescription: endothelial E-selectin expression blockers – imaging, HUVEC, immunofluorescence, MLSMR starter and 10KST1 sets, primary screen (AID 487);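 note: signal is fraction of cell area covered by stained E-selectin grains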
# recordedConditions: HUVEC TNFalpha-induced E-selectin immunofluorescence imaging, at 2 µM; active compounds read high
Documented inhibition across a set of compounds
// return numeric value only (unit: %, not printed)

Please review the entries below; each comes with its answer.
{"smilesStructure": "N#Cc1c(N)nc(SCc2ccncc2)c(C#N)c1-c1cccs1", "testValue": 13.8}
{"smilesStructure": "NC(=O)c1oc2ccc(Cl)cc2c1NC(=O)CN1CCOCC1", "testValue": -114}
{"smilesStructure": "CCc1nccn1S(=O)(=O)c1ccc2ccc(C)cc2c1", "testValue": -60.6}
{"smilesStructure": "Cc1ccc(-n2ncc3c(Nc4c(C)n(C)n(-c5ccccc5)c4=O)ncnc32)c(C)c1", "testValue": -81.8}
{"smilesStructure": "O=C1CS/C(=N\\C(=O)N2c3ccccc3Sc3ccccc32)N1", "testValue": -22.3}

Let us move to another entry and its inhibition.
Input line: I have this compound here, `COc1cc(C)nc(NS(=O)(=O)c2ccc(C)cc2)n1` , and I need its recorded inhibition.
Output line: -45.6
